Test: chemical genetic growth profiling, strain panel (AID 1159580);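 note: tested at 20 µM; growth read once vehicle control cultures reached saturation at 30 °C; lower values mean less growth of the strain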
Conditions: S. cerevisiae deletion strains, growth OD, locus YOR061W, strain CKA2
The whole screen tested about 5,500 compounds, of which about 2,000 (36%) were called active. Another 18% or so got no clear call; they are omitted. Cut-off read from the data, not from the text of the source: active = normalized growth mostly below about 0.91 (no sharp cut-off); inconclusive = no clear call, values can overlap the other calls; inactive = mostly above about 0.92. The list shows a part of the results.
API: response.call in active, inactive

Look over these answered cases.
molecule: CC(C)(S)[C@@H](N)C(=O)O
class name: inactive
//
molecule: C=NC(C(=O)NC1C(=O)N2C1SC(C)(C)C2C(=O)O)c1ccccc1 (stereo not given)
class name: inactive
//
molecule: O=C(O)C(O)C(O)C(=O)O (stereo not given)
class name: inactive
//
molecule: CC(C)(C)C1=C(C#N)C(c2c(Cl)cccc2Cl)C(C#N)=C(N)O1 (stereo not given)
class name: inactive
//
molecule: COc1ccc2c(c1)CCc1sc(NC(=O)c3ccco3)nc1-2
class name: inactive

Could you kindly confirm the outcome this assay logged for FC(F)(F)c1cc(NC(=S)SCCSC(=S)Nc2cc(C(F)(F)F)cc(C(F)(F)F)c2)cc(C(F)(F)F)c1 ?
inactive

For Nc1ccccc1C(=O)Nc1cc(C(F)(F)F)cc(C(F)(F)F)c1 , which call appears in the assay record?
inactive
